# Tested on: Yersinia pestis
# Assay Name: Ratio of MIC90 for Yersinia pestis KIM6-2082.1+ in iron rich PMH-D medium to MIC90 for Yersinia pestis KIM6-2082.1+ in presence of iron limiting PMH-D medium
# Type: functional
Ratio values, listed per item

// below: answered compounds
>>> meas_value("COc1cc([C@@H]2CC(c3ccccc3O)=NN2C(=S)Nc2ccccc2)ccc1O")
">30"
>>> meas_value("Cc1ccccc1NC(=S)N1N=C(c2ccccc2O)C[C@H]1c1ccc(O)cc1")
">4"
>>> meas_value("COc1ccc(NC(=S)N2N=C(c3ccc(O)cc3O)C[C@H]2c2ccc(O)c(OC)c2)cc1")
">9"
>>> meas_value("Oc1ccc([C@@H]2CC(c3ccc(O)cc3O)=NN2C(=S)Nc2ccccc2)cc1")
">75"
>>> meas_value("Cc1ccccc1NC(=S)N1N=C(c2ccccc2O)C[C@H]1c1ccccc1O")
">4"
>>> meas_value("Cc1ccc(NC(=S)N2N=C(c3ccccc3O)C[C@H]2c2ccccc2O)cc1")
">5"

Consider COc1ccc(NC(=S)N2N=C(c3ccc(O)cc3O)C[C@H]2c2ccc(O)cc2)cc1 . Its measured Ratio is >30

Oc1ccccc1C1=NN(C(=S)Nc2ccccc2)[C@H](c2ccco2)C1 has a reported Ratio of >5

Kindly note the recorded Ratio for COc1cc([C@@H]2CC(c3ccc(O)cc3O)=NN2C(=S)Nc2ccccc2)ccc1O , which is >75
